system: U2OS; test: Multiplex assay against U2OS; assay type: toxicity, cell-based; conditions: human, 48 h, 10 µM, compound concentration 10 uM, replicate 2
Criterion: Population Membrane Permeable-Phenotype (%) strictly under 9%. Met: 1.0. Not met: 0.0.

{"compound": "Cc1noc(-c2ccc(-c3ccc(CC(=O)O)cc3)cc2)c1NC(=O)O[C@H](C)c1ccccc1Cl", "label-class": 1.0}
{"compound": "Cc1sc2c(c1C)C(c1ccc(Cl)cc1)=N[C@@H](CC(=O)NCCCCCCCCNC(=O)COc1cccc3c1C(=O)N(C1CCC(=O)NC1=O)C3=O)c1nnc(C)n1-2 (stereo partly drawn)", "label-class": 0.0}
{"compound": "CN(C)C(=O)Cn1cc(-c2ccc(-c3cncc4ccccc34)cc2)cn1", "label-class": 0.0}
{"compound": "CCCCCC(O)/C=C/[C@H]1C(=O)CC(O)C1C/C=C\\CCCC(=O)O (stereo partly drawn)", "label-class": 1.0}
{"compound": "N#Cc1c(Oc2cccc(OS(=O)(=O)CCCC(F)(F)F)c2)cccc1C(F)(F)F", "label-class": 0.0}
{"compound": "CCCOc1ccc2[nH]cc(C3=CCNCC3)c2n1.Cl", "label-class": 1.0}
{"compound": "CCCCC(=O)N(Cc1ccc(-c2ccccc2-c2nnn[nH]2)cc1)[C@H](C(=O)O)C(C)C", "label-class": 1.0}
{"compound": "CC(/C=C1\\SC(=S)N(CCCC(=O)Nc2ccc(C(=O)O)c(O)c2)C1=O)=C\\c1ccccc1", "label-class": 1.0}
{"compound": "Cl.NCCc1ccc(O)c(O)c1 [DOPAMINE HYDROCHLORIDE]", "label-class": 1.0}
{"compound": "Cc1cccc(NC(=O)CN2CCC(c3ccccn3)CC2)c1.Cl.Cl", "label-class": 0.0}
{"compound": "Cl.N=C(N)NC(=O)Cc1c(Cl)cccc1Cl [GUANFACINE HYDROCHLORIDE]", "label-class": 0.0}
{"compound": "COc1ccccc1N1CCN(C[C@@H](C(=O)NC(C)(C)C)c2ccccc2)CC1.Cl.Cl", "label-class": 0.0}
{"compound": "NCCc1cn(S(=O)(=O)c2c(Cl)nc3sccn23)c2ccccc12.O=C(O)C(=O)O", "label-class": 0.0}
{"compound": "CC(C)c1noc(N2CCC(COc3ccc(-c4ccc(S(C)(=O)=O)cc4)nc3)CC2)n1", "label-class": 1.0}
{"compound": "Br.CS(=O)(=O)Nc1c(O)ccc2c1CCCC2C1=NCCN1 (stereo not drawn)", "label-class": 1.0}
{"compound": "CC(C)COc1ccc(CNC(=O)N(Cc2ccc(F)cc2)C2CCN(C)CC2)cc1", "label-class": 0.0}
{"compound": "CN[C@@H](C)C(=O)N[C@H](C(=O)N1CCC[C@H]1C(=O)Nc1snnc1-c1ccccc1)C1CCCCC1", "label-class": 0.0}

---

Each entry below lists one item and its recorded Population Fragmented Nuclei (%) value.
tested on: U2OS; test: Multiplex assay against U2OS; assay type: toxicity, cell-based; conditions: human, 12 h, 1 µM, compound concentration 1 uM, replicate 2
recorded-metric: Population Fragmented Nuclei (%)

{"molecule": "N#Cc1c(Oc2cccc(OS(=O)(=O)CCCC(F)(F)F)c2)cccc1C(F)(F)F", "endpoint-unit": "%", "quantitative-readout": 12}
{"molecule": "Cc1noc(-c2ccc(-c3ccc(CC(=O)O)cc3)cc2)c1NC(=O)O[C@H](C)c1ccccc1Cl", "endpoint-unit": "%", "quantitative-readout": 19}
{"molecule": "CCCCCC(O)/C=C/[C@H]1C(=O)CC(O)C1C/C=C\\CCCC(=O)O (stereo not given in full)", "endpoint-unit": "%", "quantitative-readout": 15}
{"molecule": "COc1cccc2c1c(NS(=O)(=O)c1ccc(Cl)s1)nn2Cc1cccc(CNC(=O)C(C)(C)O)c1", "endpoint-unit": "%", "quantitative-readout": 29}
{"molecule": "O=C1[C@H](Cc2ccc(O)cc2)N2C(=O)CCN(C(=O)NCc3ccccc3)[C@H]2CN1Cc1cccc2ccccc12", "endpoint-unit": "%", "quantitative-readout": 21}
{"molecule": "CCc1cc2cc(NS(=O)(=O)c3ccc(C#N)cc3)ccc2n(CC)c1=O", "endpoint-unit": "%", "quantitative-readout": 26}
{"molecule": "CC(C)c1noc(N2CCC(COc3ccc(-c4ccc(S(C)(=O)=O)cc4)nc3)CC2)n1", "endpoint-unit": "%", "quantitative-readout": 16}
{"molecule": "Cc1cccc(NC(=O)CN2CCC(c3ccccn3)CC2)c1.Cl.Cl", "endpoint-unit": "%", "quantitative-readout": 17}
{"molecule": "CC(/C=C1\\SC(=S)N(CCCC(=O)Nc2ccc(C(=O)O)c(O)c2)C1=O)=C\\c1ccccc1", "endpoint-unit": "%", "quantitative-readout": 12}
{"molecule": "Cl.N=C(N)NC(=O)Cc1c(Cl)cccc1Cl [GUANFACINE HYDROCHLORIDE]", "endpoint-unit": "%", "quantitative-readout": 20}

---

tested on: U2OS; assay: Multiplex assay against U2OS; format: toxicity, cell-based; details: human, 24 h, 10 µM, compound concentration 10 uM, replicate 1
Returns one of true or false; true when Population Hoechst High Intensity Objects (%) is >= 2%.

{"compound": "Cc1sc2c(c1C)C(c1ccc(Cl)cc1)=N[C@@H](CC(=O)NCCCCCCCCNC(=O)COc1cccc3c1C(=O)N(C1CCC(=O)NC1=O)C3=O)c1nnc(C)n1-2 (stereo partly drawn)", "label-class": "true"}
{"compound": "CN[C@@H](C)C(=O)N[C@H](C(=O)N1CCC[C@H]1C(=O)Nc1snnc1-c1ccccc1)C1CCCCC1 [GDC-0152]", "label-class": "true"}
{"compound": "CCc1cc2cc(NS(=O)(=O)c3ccc(C#N)cc3)ccc2n(CC)c1=O", "label-class": "true"}
{"compound": "CC(C)c1noc(N2CCC(COc3ccc(-c4ccc(S(C)(=O)=O)cc4)nc3)CC2)n1 [GSK-1292263]", "label-class": "false"}
{"compound": "N#Cc1c(Oc2cccc(OS(=O)(=O)CCCC(F)(F)F)c2)cccc1C(F)(F)F", "label-class": "true"}

---

system: U2OS; assay: Multiplex assay against U2OS; format: toxicity, cell-based; settings: human, 12 h, 1 µM, compound concentration 1 uM, replicate 1
Each entry below lists one item and its recorded Total Cell Count value.

{"molecule": "C[C@H](N)COC(=O)[C@@H](CCCCN)NC(=O)Cc1c(-c2ccc3ccccc3c2)[nH]c2c1ccc1ccccc12", "assayed-target": "U2OS", "Total Cell Count": 244}
{"molecule": "O=C(NCCN1CCC(n2c(=O)[nH]c3cc(Cl)ccc32)CC1)c1ccc(F)cc1 [HALOPEMIDE]", "assayed-target": "U2OS", "Total Cell Count": 209}
{"molecule": "CC(C)COc1ccc(CNC(=O)N(Cc2ccc(F)cc2)C2CCN(C)CC2)cc1", "assayed-target": "U2OS", "Total Cell Count": 265}
{"molecule": "CC[C@@H](C)Nc1nc(C)nc2c(-c3ccc(OC)nc3C)c(C)nn12", "assayed-target": "U2OS", "Total Cell Count": 258}

---

tested on: HEK-293T; test: Multiplex assay against HEK293T; type: toxicity, cell-based; conditions: human, 12 h, 10 µM, compound concentration 10 uM, replicate 2
recorded-metric: Population Mitotic Cells (%)

{"compound": "CC(C)c1noc(N2CCC(COc3ccc(-c4ccc(S(C)(=O)=O)cc4)nc3)CC2)n1", "quantitative-readout": 56}
{"compound": "Cc1cccc(NC(=O)CN2CCC(c3ccccn3)CC2)c1.Cl.Cl", "quantitative-readout": 56}
{"compound": "N#Cc1c(Oc2cccc(OS(=O)(=O)CCCC(F)(F)F)c2)cccc1C(F)(F)F", "quantitative-readout": 55}
{"compound": "Cl.NCCc1ccc(O)c(O)c1 [DOPAMINE HYDROCHLORIDE]", "quantitative-readout": 62}
{"compound": "Cc1cnc(-c2cc(N3CCN(C(=O)CCS(C)(=O)=O)CC3)ncc2Cl)c(C)c1", "quantitative-readout": 54}
{"compound": "Cl.N=C(N)NC(=O)Cc1c(Cl)cccc1Cl [GUANFACINE HYDROCHLORIDE]", "quantitative-readout": 65}
{"compound": "CCc1cc2cc(NS(=O)(=O)c3ccc(C#N)cc3)ccc2n(CC)c1=O", "quantitative-readout": 34}
{"compound": "CN[C@@H](C)C(=O)N[C@H](C(=O)N1CCC[C@H]1C(=O)Nc1snnc1-c1ccccc1)C1CCCCC1", "quantitative-readout": 28}
{"compound": "CN(C)C(=O)Cn1cc(-c2ccc(-c3cncc4ccccc34)cc2)cn1", "quantitative-readout": 30}

---

system: HEK-293T; experiment: Multiplex assay against HEK293T; type: toxicity, cell-based; conditions: human, 12 h, 1 µM, compound concentration 1 uM, replicate 1

{"molecule": "O=C1[C@H](Cc2ccc(O)cc2)N2C(=O)CCN(C(=O)NCc3ccccc3)[C@H]2CN1Cc1cccc2ccccc12", "assayed-target": "HEK-293T", "Population Fragmented Nuclei (%)": 6}
{"molecule": "Cc1cccc(NC(=O)CN2CCC(c3ccccn3)CC2)c1.Cl.Cl", "assayed-target": "HEK-293T", "Population Fragmented Nuclei (%)": 7}
{"molecule": "Cl.NCCc1ccc(O)c(O)c1 [DOPAMINE HYDROCHLORIDE]", "assayed-target": "HEK-293T", "Population Fragmented Nuclei (%)": 6}
{"molecule": "Cc1noc(-c2ccc(-c3ccc(CC(=O)O)cc3)cc2)c1NC(=O)O[C@H](C)c1ccccc1Cl", "assayed-target": "HEK-293T", "Population Fragmented Nuclei (%)": 7}
{"molecule": "CC(/C=C1\\SC(=S)N(CCCC(=O)Nc2ccc(C(=O)O)c(O)c2)C1=O)=C\\c1ccccc1", "assayed-target": "HEK-293T", "Population Fragmented Nuclei (%)": 6}
